Property: inhibition; scope: individual compounds
Molecular target: Protein Mdm4 (Homo sapiens) + E3 ubiquitin-protein ligase Mdm2 (Homo sapiens) (UniProt O15151+Q00987)
Sequence (O15151 whole entry, looked up): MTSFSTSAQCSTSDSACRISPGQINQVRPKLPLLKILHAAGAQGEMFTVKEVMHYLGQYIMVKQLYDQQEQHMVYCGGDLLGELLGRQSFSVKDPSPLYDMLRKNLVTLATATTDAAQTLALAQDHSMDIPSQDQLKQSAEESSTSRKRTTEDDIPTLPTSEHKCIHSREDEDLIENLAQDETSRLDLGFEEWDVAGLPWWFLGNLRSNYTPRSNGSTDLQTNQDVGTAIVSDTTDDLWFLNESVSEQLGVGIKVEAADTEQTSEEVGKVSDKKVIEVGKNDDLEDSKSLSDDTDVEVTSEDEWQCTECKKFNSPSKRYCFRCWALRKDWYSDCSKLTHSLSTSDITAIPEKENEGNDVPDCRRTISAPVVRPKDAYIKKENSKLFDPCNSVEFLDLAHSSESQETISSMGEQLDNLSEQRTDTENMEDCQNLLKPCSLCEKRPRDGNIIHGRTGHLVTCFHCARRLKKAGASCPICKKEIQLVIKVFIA
Sequence (Q00987 whole entry, looked up): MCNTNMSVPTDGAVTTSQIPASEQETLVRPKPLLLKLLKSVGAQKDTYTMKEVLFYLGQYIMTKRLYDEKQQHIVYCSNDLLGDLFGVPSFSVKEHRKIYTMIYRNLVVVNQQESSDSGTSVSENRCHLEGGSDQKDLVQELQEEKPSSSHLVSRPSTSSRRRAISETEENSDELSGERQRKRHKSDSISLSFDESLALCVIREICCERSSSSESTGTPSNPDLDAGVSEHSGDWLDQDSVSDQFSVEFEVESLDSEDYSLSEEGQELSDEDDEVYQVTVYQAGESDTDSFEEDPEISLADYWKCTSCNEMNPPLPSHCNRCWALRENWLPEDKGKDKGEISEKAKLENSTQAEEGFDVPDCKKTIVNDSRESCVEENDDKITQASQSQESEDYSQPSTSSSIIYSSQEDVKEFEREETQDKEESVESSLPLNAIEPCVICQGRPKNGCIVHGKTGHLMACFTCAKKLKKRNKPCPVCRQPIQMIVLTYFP
Test: inhibitors of human Mdm2-MdmX association, primary screen, cell-based, luminescence, split luciferase, SaOS-2, uHTS (AID 485346)
Conditions: SaOS-2 split-luciferase Mdm2/MdmX complementation, at 8 µM, hits give high values
Screen size: about 330,000 compounds; about 10,000 (3%) were called active. Many of the other results were omitted from the sample, so actives are more common in it than they were.
reported.property: inhibition (%)

>>> df
                         chemical_structure  observed
0  O=C(CN1C(=O)c2ccccc2S1(=O)=O)N1CCc2ccccc21        68
1    O=C(CN1C(=O)c2ccccc2S1(=O)=O)NC1CCCCC1      12.3
2     CN(C)/C=C(/C(=O)c1ccccc1Cl)S(C)(=O)=O     -2.89
3  CCN(C(=O)COC(=O)CCOc1cccc(C)c1)c1c(N)n(Cc2ccccc2)c(=O)[nH]c1=O     -15.7
4  COc1cccc(CC(=O)OCC(=O)NCc2ccc3c(c2)OCO3)c1      1.87

----------
Target: Protein Mdm4 (Homo sapiens) + E3 ubiquitin-protein ligase Mdm2 (Homo sapiens) (UniProt O15151+Q00987)
Assay: inhibitors of human Mdm2-MdmX association, primary screen, cell-based, luminescence, split luciferase, SaOS-2, uHTS (AID 485346)
Settings: SaOS-2 split-luciferase Mdm2/MdmX complementation, at 8 µM
Screen size: about 330,000 compounds; about 10,000 (3%) were called active.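 Rule for the calls: active = inhibition of at least 50% at 8 µM in the primary screen; inactive = the rest.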 Shown is part of a subset that was picked to be rich in actives.
Possible outcomes: class 1 = active, class 0 = inactive

                                    compound  class_label
 0  CC(=O)N1CCN(C(=O)Nc2cccc(C(F)(F)F)c2)CC1      class 0
 1  CCNS(=O)(=O)c1ccc(NC(=O)Nc2cccc(C(F)(F)F)c2)cc1      class 1
 2  O=C(CN1CCN(S(=O)(=O)c2ccc3ccccc3c2)CC1)NC(=O)NC1CCCCC1      class 0
 3  CC(Nc1nc(N2CCCC2)nc2ccccc12)c1ccccc1 (stereo not drawn)      class 1
 4   Cc1occc1-c1nnc(SCC(=O)NC2(C#N)CCCC2)n1C      class 0
 5    O=c1c([N+](=O)[O-])cccn1Cc1ccc(F)cc1Cl      class 0
 6  Cc1ccc(C)c(N2CCN(C(=O)CCCCCn3c(=S)[nH]c4ccc(N5CCOCC5)cc4c3=O)CC2)c1      class 1
 7  CCCC(=O)Nc1nc2ccc(NC(=O)c3c(F)c(F)c(OC)c(F)c3F)cc2s1      class 0
 8  COc1ccc(N2CCN(C(=O)CNS(=O)(=O)c3ccc(C)c(C)c3)CC2)cc1      class 0
 9  Cc1nnc(SCCCCSc2nnc(C)c(=O)[nH]2)[nH]c1=O      class 0
10  CCN(CC)S(=O)(=O)c1cc(C(=O)Nc2cc(S(=O)(=O)N3CCOCC3)ccc2N2CCCC2)ccc1F      class 0
11    CCCC(=O)Nc1nc2ccc(NC(=O)c3cccnc3)cc2s1      class 1
12       CCc1noc(C)c1C(=O)Nc1nc2ccc(OC)cc2s1      class 0
